targetOrSystem: Rat recombinant α2,3(O)ST (Rattus norvegicus, UniProt Q11205)
Construct: purchased Calbiochem
Sequence (Q11205 1-350): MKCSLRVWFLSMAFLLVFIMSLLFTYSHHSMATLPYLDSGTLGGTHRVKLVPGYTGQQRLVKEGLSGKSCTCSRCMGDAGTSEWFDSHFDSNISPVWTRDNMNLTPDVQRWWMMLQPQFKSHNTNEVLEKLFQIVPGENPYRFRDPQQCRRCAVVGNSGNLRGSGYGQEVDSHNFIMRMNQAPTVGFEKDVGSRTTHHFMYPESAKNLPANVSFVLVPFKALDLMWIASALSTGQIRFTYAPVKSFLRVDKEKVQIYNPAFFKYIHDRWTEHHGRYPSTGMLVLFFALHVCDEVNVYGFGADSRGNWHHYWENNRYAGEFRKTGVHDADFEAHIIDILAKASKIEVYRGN
assay: Sialyltransferase assay with cloned α2,3(O)ST
Type: biochemical
conditions: CMP-NeuAc 150 μM; Lineweaver-Burke plot
quantityName: Vmax (pmol/h)

CC(=O)N[C@H]1[C@@H](OCc2ccccc2)O[C@H](CO)[C@H](O)[C@@H]1O[C@@H]1O[C@H](C)[C@H](O)[C@H](O)[C@H]1O : 1250

P: CO[C@H]1O[C@H](CO)[C@H](O)[C@H](O[C@@H]2O[C@H](CO)[C@H](O)[C@H](O[C@@H]3O[C@H](C)[C@H](O)[C@H](OS(=O)(=O)O)[C@H]3O)[C@H]2NC(C)=O)[C@H]1O
Q: CC(=O)N[C@H]1[C@H](OC[C@H]2O[C@H](OCc3ccccc3)[C@H](NC(C)=O)[C@@H](O[C@@H]3O[C@H](CO)[C@H](O)[C@H](O)[C@H]3O[C@@H]3O[C@@H](C)[C@@H](O)[C@@H](O)[C@@H]3O)[C@H]2O)O[C@H](CO)[C@@H](O)[C@@H]1O
Prompt: Returns: the argument ( P or Q ) having the larger Vmax. Refer to your chosen item by its label in the answer.
Completion: P

====

Tested on: β-GlcNAc:β1,4GalNAc-T of breast tumor BC9400
assay: β-GlcNAc:β1,4GalNAc-T assay, breast tumor extract
Assay type: biochemical, human
conditions: other acceptors, 1 mg protein of the tissue extract
quantityName: b) β-GlcNAc:β1,4GalNAc-T activity: incorporation of radioactive sugar (CPM × 10^−3)
Answer in CPM × 10^−3, number only, no unit symbol.

C=CCO[C@@H]1O[C@H](CO[C@@H]2O[C@H](CO)[C@@H](O)[C@H](O)[C@@H]2O[C@@H]2O[C@H](CO)[C@@H](O)[C@H](O)[C@H]2NC(C)=O)[C@@H](O)[C@H](O)[C@H]1O : 57.9

Prompt: Quick one: b) β-GlcNAc:β1,4GalNAc-T activity: incorporation of radioactive sugar for CC(=O)N[C@H]1[C@H](OCc2ccccc2)O[C@H](CO)[C@@H](O[C@@H]2O[C@H](CO)[C@@H](O)[C@H](O)[C@H]2NC(C)=O)[C@@H]1O ?
Completion: 57.8

Prompt: Quick one: b) β-GlcNAc:β1,4GalNAc-T activity: incorporation of radioactive sugar for C=CCO[C@H]1O[C@H](CO[C@@H]2O[C@H](CO)[C@@H](O)[C@H](O)[C@H]2NC(C)=O)[C@@H](O)[C@H](O)[C@@H]1O ?
Completion: 99.2

Prompt: Quick one: b) β-GlcNAc:β1,4GalNAc-T activity: incorporation of radioactive sugar for CO[C@@H]1O[C@H](CO)[C@H](O)[C@H](O[C@@H]2O[C@H](CO)[C@@H](O)[C@H](O)[C@H]2NC(C)=O)[C@H]1O ?
Completion: 60.9
